# Assay Summary: Half life in monkey hepatocytes
# Assay type: ADME, cell-based, Macaca mulatta, Hepatocyte
# Test Parameters: rhesus monkey
Endpoint Name: half-life

The measured half-life associated with O=C(O[C@@H]1O[C@H](C(=O)O)[C@@H](O)[C@H](O)[C@H]1O)c1c[nH]c2cc(Cl)c(-c3ccc(C4(O)CCC4)cc3)cc12 reads > 4 h

---

# System: Hepatocyte
# Test Parameters: human, hepatocytes, 4 h, 10 µM
# Description: Retention time of the compound in human hepatocytes at 10 uM after 4 hrs by HPLC-UV analysis
Label rule, in plain words: Retention_time of 8 min and up is 1 (yes), under 8 min is 0 (no).

State whether the measured Retention_time reaches 8 min, counting equality as reaching it, for O=C(O[C@@H]1O[C@H](C(=O)O)[C@@H](O)[C@H](O)[C@H]1O)c1c[nH]c2cc(Cl)c(-c3ccc(C4(O)CCC4)cc3)cc12
0 (no)

For this compound, is measured Retention_time 8 min or higher? O=C(O)c1c[nH]c2cc(F)c(-c3ccc([C@@H]4CCCCO4)cc3)c(F)c12
1 (yes)

Entry O=C(NO)c1c[nH]c2cc(Cl)c(-c3ccc(C4(O)CCC4)cc3)cc12 : is its Retention_time no less than 8 min?
0 (no)

Reported Retention_time at or above 8 min? O=C(O[C@@H]1O[C@H](C(=O)O)[C@@H](O)[C@H](O)[C@H]1O)c1c[nH]c2cc(F)c(-c3ccc([C@@H]4CCCCO4)cc3)c(F)c12
1 (yes)

---

# Assay Summary: AUC (0 to 24 hrs) in Wistar Han rat at 0.5 mg/kg, iv by LC-MS/MS analysis
# Type: ADME, organism-based
# Set-up: time < 24 hr, dose 0.5 mg/kg, route intravenous
# Test Parameters: in vivo
Endpoint Name: AUC(0-t) at 24 h (ng·h/mL)
Note: unit ng·h/mL is implicit; provide only the numeric part.

// O=C(O[C@@H]1O[C@H](C(=O)O)[C@@H](O)[C@H](O)[C@H]1O)c1c[nH]c2cc(Cl)c(-c3ccc(C4(O)CCC4)cc3)cc12 : AUC(0-t) at 24 h value = 8850

---

# Assay Summary: in vitro
# Test Parameters: rat, plasma
# Description: Protein binding in rat plasma assessed as unbound fraction
Endpoint Name: fraction unbound

Form field fraction unbound, entry O=C(O[C@@H]1O[C@H](C(=O)O)[C@@H](O)[C@H](O)[C@H]1O)c1c[nH]c2cc(Cl)c(-c3ccc(C4(O)CCC4)cc3)cc12 : 0.0018

---

# Assay Summary: Volume of distribution at steady state in Wistar Han rat at 0.5 mg/kg, iv by LC-MS/MS analysis
# Type: ADME, organism-based
# Test Parameters: in vivo, read-out: Vdss
Endpoint Name: Vd (L/kg)
Answer in L/kg, number only, no unit symbol.

Per the records, this molecule ( O=C(O[C@@H]1O[C@H](C(=O)O)[C@@H](O)[C@H](O)[C@H]1O)c1c[nH]c2cc(Cl)c(-c3ccc(C4(O)CCC4)cc3)cc12 ) has Vd equal to 0.4

---

# Target Of Assay: AMP-activated protein kinase (AMPK) alpha-1/beta-1/gamma-1 (Homo sapiens, UniProt P54619+Q13131+Q9Y478)
# Sequence (P54619 whole entry): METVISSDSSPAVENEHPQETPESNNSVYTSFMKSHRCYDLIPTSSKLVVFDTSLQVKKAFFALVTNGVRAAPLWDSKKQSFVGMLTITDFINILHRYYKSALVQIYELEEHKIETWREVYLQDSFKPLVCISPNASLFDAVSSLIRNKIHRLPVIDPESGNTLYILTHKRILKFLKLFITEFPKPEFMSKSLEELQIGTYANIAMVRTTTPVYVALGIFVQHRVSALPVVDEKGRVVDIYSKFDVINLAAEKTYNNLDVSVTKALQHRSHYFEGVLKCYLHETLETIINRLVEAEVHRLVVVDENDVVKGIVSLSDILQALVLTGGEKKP
# Sequence (Q9Y478 whole entry): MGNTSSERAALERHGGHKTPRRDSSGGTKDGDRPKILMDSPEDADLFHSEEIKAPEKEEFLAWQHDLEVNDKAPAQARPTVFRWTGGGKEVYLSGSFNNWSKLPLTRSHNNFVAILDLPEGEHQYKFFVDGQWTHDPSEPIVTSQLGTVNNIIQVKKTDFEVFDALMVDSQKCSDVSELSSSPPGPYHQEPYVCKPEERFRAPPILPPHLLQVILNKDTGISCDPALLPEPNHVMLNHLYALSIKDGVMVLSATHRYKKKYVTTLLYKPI
# Sequence (Q13131 whole entry): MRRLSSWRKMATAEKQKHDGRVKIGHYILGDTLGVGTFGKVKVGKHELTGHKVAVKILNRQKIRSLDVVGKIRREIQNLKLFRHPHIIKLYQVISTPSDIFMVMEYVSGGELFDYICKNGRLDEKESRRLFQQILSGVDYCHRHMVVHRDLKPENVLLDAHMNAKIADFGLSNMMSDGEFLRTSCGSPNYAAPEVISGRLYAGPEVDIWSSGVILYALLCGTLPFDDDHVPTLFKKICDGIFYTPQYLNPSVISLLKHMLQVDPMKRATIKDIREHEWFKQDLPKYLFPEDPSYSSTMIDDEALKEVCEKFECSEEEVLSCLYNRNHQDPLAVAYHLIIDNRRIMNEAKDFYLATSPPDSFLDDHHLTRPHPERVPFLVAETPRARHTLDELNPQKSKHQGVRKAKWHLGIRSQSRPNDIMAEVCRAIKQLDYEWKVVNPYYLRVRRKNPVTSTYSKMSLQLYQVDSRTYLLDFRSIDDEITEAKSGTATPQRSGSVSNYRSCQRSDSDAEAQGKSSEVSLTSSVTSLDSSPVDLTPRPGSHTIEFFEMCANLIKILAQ
# Assay Summary: biochemical
# Description: Activation of full-length recombinant N-terminal His-tagged human AMPKalpha1beta1gamma1 expressed in Escherichia coli BL21 cells using Cy-5 SAMS peptide as substrate preincubated for 60 mins followed by substrate addition and measured after 60 mins in presence of PP2a by TR-FRET assay
Endpoint Name: pEC50
Field pEC50 (float): negative decimal logarithm of the concentration in molar.

Data point: O=C(O[C@@H]1O[C@H](C(=O)O)[C@@H](O)[C@H](O)[C@H]1O)c1c[nH]c2cc(F)c(-c3ccc([C@@H]4CCCCO4)cc3)c(F)c12 ; pEC50 = 7.23
